Values were extracted from PubChem BioAssay (NCI).

- System: MOLT-4 leukemia
- assay-protocol: NCI-60 one-dose screen, 48 h
- experimental-conditions: 10 µM unless noted
About 83,000 compounds went through this panel and 20% of them were active in at least one assay; those are over-represented in the sample as a whole. Calls of active or inactive are those of the source. The calls were made as follows: active = growth percent below 10; inactive = the rest.
Assign a class; possible classes are y for active, n for inactive

Below are worked cases with known answers.
{"columns": ["compound", "assigned-class"],
 "data": [
  ["O=C1CN(c2ccccc2)C(=O)C1C(=O)Nc1ccc(Cl)c(Cl)c1 (stereo not given)", "y"],
  ["C[Si](C)(C)Cc1ccccc1", "n"],
  ["CC1(C)[C@@H](O)CC[C@]2(C)[C@H]3CC[C@@H]4[C@H]5[C@H](C(=O)/C=C/c6ccc(C(F)(F)F)cc6)CC[C@]5(CO)CC[C@@]4(C)[C@]3(C)CC[C@@H]12", "n"]
]}

Recorded test outcome, item CCCCCC1CCCCN1C(=O)OCC (stereo not given)
n

Test call, this compound: `COc1ccc(-c2cc(-c3c(C)oc4cc5occc5c(OC)c4c3=O)nc(N)c2C#N)cc1OC`
n
